// values below are reported pull-down binding Z-score
- Test system: TO-N3 (biotin conjugate)
- measurementProtocol: pull-down binding Z-score (relative to library population); higher = stronger binding
- testParameters: RNA library: Library-2
Just the number, please, no unit attached.

seq	observedValue
UUAAUGCCUGUCUGUGUGGAAACUAAAGCCAUAGUUUCAACUAUACAGCGUAAAUAUAAGGGUAUUAA [DMSMaPseq_invitro_SARS-CoV-2_Motif_83]	-0.439
GCUGACACUACUGAUGCUGUCCGUGAUCCACAGACACUUGAGAUUCUUGACAUUACACCAUGUUCUUUUGGUGGUGUCAGU [SHAPE_invivo_SARS-CoV-2_Multi_58_ComplexLevel_1]	0.456
ACCUAACACACUGCCUUUUAUGUGGUAGGU [hsa-mir-5094]	-1.02
CUCUGGAACACUUUUACAAGACUUCAGAG [SHAPE_invivo_SARS-CoV-2_Motif_367]	-0.338
UAAAAUGAAUUAUCAAGUUA [DMSMaPseq_invitro_SARS-CoV-2_Motif_325]	-1.04

Input: Look up pull-down binding Z-score with TO-N3 (biotin conjugate) for this sequence: AUUGCACGUGUGUGAGGCGGGUGCAGU [hsa-mir-33b]
Output: 0.7

Input: Entry CCAUGUGGUUGCGAGGUAUGAGUAAAACAUGG [hsa-mir-218-1] please
Output: -0.567

Input: Entry GGCGCGCGAGGCUCCAGGCUCC [hsa-mir-3197] please
Output: 0.81

###

// values below are reported pull-down binding Z-score
- Tested on: TO-3-N3-2 (biotin conjugate)
- measurementProtocol: pull-down binding Z-score (relative to library population); higher = stronger binding
- testParameters: RNA library: Library-2

>>> df
                                        seq  observedvalue
0  GCUCUAAUAAUUUAUUCUAAUAAUAAUUUAGAUC [hsa-mir-7976]         -0.379
1  UGGCAUUAAUGCUUCAGUUGUAAACAUUCAAAAAGAAAUUGACCGCCUCAAUGAGGUUGCCA         -0.207
2    AAAACUUUCAUCCAAGUCAUU [hsa-mir-378d-2]         -0.238

Input: Using the record for GAUGUUUCUGCCAGUUUAGCGUC [hsa-mir-505] , report its pull-down binding Z-score.
Output: -0.0968

Input: Entry GGAGUUCAAAUUGCUUCC [IAV_invivo_NP_5_Motif_19+IAV_invivo_NP_5_Motif_19] please
Output: -0.404

Input: Entry AUUGUUACAUAAACCUAUUGUUUGGCAUGUUAACAAU please
Output: -0.197

Input: Entry GGAGCUCUGUCCUGUCUCACUCAUUGCUCC [hsa-mir-6749] please
Output: -0.272

Input: Entry CAUGAUUUGGAAAAAUUACUG [hsa-mir-6128] please
Output: -0.0805

Input: Entry CCUUCACACUCAAAGGCGGUGCACCAACAAAGGUUACUUUUGGUGAUGACACUGUGAUAGAAGUGCAAGG [SHAPE_invitro_SARS-CoV-2_Motif_51] please
Output: -0.155

###

- Test system: G-clamp-N3 (biotin conjugate)
- measurementProtocol: pull-down binding Z-score (relative to library population); higher = stronger binding
- testParameters: RNA library: Library-1 (pre-miRNA loops + repeats)
Decision: pull-down binding Z-score >= -0.4 yields y, all other cases yield n.

Recorded results for 2 sequences are shown here.
>>> df
                                        seq  grouplabel
0  CGGGCCCCUCCCCUCAAUGGGCCCG [hsa-mir-5685]           y
1  ACACACACCAGACUAUGGAAGCCAGUGU [hsa-mir-147a]           n

Input: Dear colleague, could you confirm whether UUUGUCAUUACUUUAAUUACUUUACGUUUCAUUAAUGACAAA [hsa-mir-548h-4] has pull-down binding Z-score at or above -0.4?
Output: n

Input: Entry GUACUGGGUCUCUCUGGUUAGACCAGAUCUGAGCCUGGGAGCUCUCUGGCUAACUAGGGAACCCACUGC [HIV_2014_Siegfried_nucs_8982_9173_4] please
Output: y

Input: Entry GGAAGGGCGCCUGUGCUUCGUCC [hsa-mir-572] please
Output: y

Input: Entry AGAUGAGGGUGUCGGAUCAACU [hsa-mir-193a] please
Output: y

Input: Entry CAAGGGCUCUACUGUCCUUUCAGGAGAGCCCUUG [hsa-mir-4776-2] please
Output: y

Input: Entry AUAGUUUGGGGCUCUGCCCUGCUAUGGGAUAACUAU [hsa-let-7a-3] please
Output: y

Input: Entry ACUUCAGAUGCUUCAUGACA [hsa-mir-6865] please
Output: n

Input: Entry AAAAUUACUUUUGGUAAAUACAGUUUU [hsa-mir-559] please
Output: n

Input: Entry AGGUUCUGCUGGCUGAGAACCU [hsa-mir-3667] please
Output: y

Input: Entry GGCUGUGAGCUCUAGCAAUGCCC [hsa-mir-146b] please
Output: n

Input: Entry GCUUGCUGUACAUAACUCAAUAGCCGGAAGC [hsa-mir-129-2] please
Output: y

Input: Entry CGUAUGUGUAUAUAAAUGUAUACG [hsa-mir-1277] please
Output: y

Input: Entry CUGUCCCCUGCCACUGGGUGACC [hsa-mir-7114] please
Output: n

Input: Entry UGUGGUUGGGGCCAUGGCGGGUGGGCAGCCCAGCCUCUGAGCCUUCCU [hsa-mir-1238] please
Output: y

Input: Entry AGCACUUUCUGUUUUGUGAAAGAAAAGAAAGUGCU [hsa-mir-516b-1] please
Output: n

Input: Entry UGUUGACUGAAUAAUAAACA [hsa-mir-3139] please
Output: n

Input: Entry UUUGCCAUUAUAAUGGCAAA [hsa-mir-548ae-1] please
Output: y

Input: Entry UGGUUUGACACAGAGCUAAAUCA [hsa-mir-5007] please
Output: n
